Measured pEC50 by item
Tested on: Primary T Cell
Assay: T cell enhancement of cytokines: IL2 measurement (HTRF) in expanded CD3+ T cells stimulated with anti-CD3/anti-CD28
Type: cell-based, human
Conditions: Homo sapiens, T-cell, 24 h, plate-bound anti-CD3 and soluble anti-CD28, 24 h, read-out: IL-2 Primary T Cell EC50
Hey, just a heads up that pEC50 is the negative log base 10 of the concentration in molar.

Below are worked cases with known answers.
>  <compound>
C[C@@H]1c2nc(Nc3cc4c(C(C)(C)N)cnc(OC5CN(C(=O)N(C)C)C5)c4cn3)ccc2C(=O)OC1(C)C [Compound 57]

>  <pEC50>
7.68

$$$$
>  <compound>
C[C@@H]1c2nc(Nc3cc4c(C(C)(C)N)cnc(OC5CN(C(=O)C6CC6)C5)c4cn3)ccc2C(=O)OC1(C)C [Compound 8]

>  <pEC50>
7.49

$$$$

Query: Tell me pEC50 of C[C@@H]1OC(=O)c2ccc(Nc3cc4c(C(C)(C)N)cnc(OC5CN(C(=O)C6CC6)C5)c4cn3)nc2[C@H]1C [Compound 5] when tested on Primary T Cell.
Reply: 7.75

Query: Tell me pEC50 of CCC[C@@](C)(N)c1ncc(OC2CN(C(C)=O)C2)c2cnc(Nc3ccc4c(n3)CC(C)(C)OC4=O)cc12 (single isomer, unassigned) [Compound 112] when tested on Primary T Cell.
Reply: 7.99

Query: Tell me pEC50 of CC[C@@](C)(N)c1cnc(OC2CN(C(=O)C3CC3)C2)c2cnc(Nc3ccc4c(n3)[C@@H](C)C(C)(C)OC4=O)cc12 [Compound 70] when tested on Primary T Cell.
Reply: 7.90

Query: Tell me pEC50 of C[C@@H]1OC(=O)c2ccc(Nc3cc4c(C(C)(C)N)cnc(O[C@H]5C[C@@H](C(=O)N(C)C)C5)c4cn3)nc2[C@H]1C [Compound 33] when tested on Primary T Cell.
Reply: 8.04

Query: Tell me pEC50 of C[C@@H]1c2nc(Nc3cc4c(C(C)(C)N)cnc(OC5CN(C(=O)N6CCC6)C5)c4cn3)ccc2C(=O)OC1(C)C [Compound 72] when tested on Primary T Cell.
Reply: 7.52

Query: Tell me pEC50 of COC[C@@](C)(N)c1cnc(OC2CN(C(=O)OC)C2)c2cnc(Nc3ccc4c(n3)[C@@H](C)[C@H](C)OC4=O)cc12 [Compound 121] when tested on Primary T Cell.
Reply: 7.38

Query: Tell me pEC50 of CC(=O)N1CC(Oc2ncc(C(C)(C)N)c3cc(Nc4ccc5c(n4)[C@@H](C)C(C)(C)OC5=O)ncc23)C1 [Compound 4] when tested on Primary T Cell.
Reply: 7.70

Query: Tell me pEC50 of CC(=O)N1CC(Oc2ccc(C(C)(C)N)c3cc(Nc4ccc5c(n4)[C@@H](C)C(C)(C)OC5=O)ncc23)C1 [Compound 21] when tested on Primary T Cell.
Reply: 7.77

Query: Tell me pEC50 of COC[C@@](C)(N)c1cnc(OC2CN(C(C)=O)C2)c2cnc(Nc3ccc4c(n3)[C@@H](C)C(C)(C)OC4=O)cc12 [Compound 62] when tested on Primary T Cell.
Reply: 6.97

Query: Tell me pEC50 of C[C@@H]1c2nc(Nc3cc4c(C(C)(C)N)cnc(OCCCC(=O)N(C)C)c4cn3)ccc2C(=O)OC1(C)C [Compound 39] when tested on Primary T Cell.
Reply: 7.85

Query: Tell me pEC50 of C[C@@H]1c2nc(Nc3cc4c(C(C)(C)N)cnc(OC5CN(C(=O)C6COC6)C5)c4cn3)ccc2C(=O)OC1(C)C [Compound 77] when tested on Primary T Cell.
Reply: 7.32

Query: Tell me pEC50 of CC(=O)N1CC(Oc2ccc(C(C)(C)N)c3cc(Nc4ccc5c(n4)[C@@H](C)[C@H](C)OC5=O)ncc23)C1 [Compound 19] when tested on Primary T Cell.
Reply: 7.39

Query: Tell me pEC50 of COC1CN(C(=O)[C@H]2C[C@@H](Oc3ncc(C(C)(C)N)c4cc(Nc5ccc6c(n5)[C@@H](C)[C@H](C)OC6=O)ncc34)C2)C1 [Compound 92] when tested on Primary T Cell.
Reply: 7.47

Query: Tell me pEC50 of COC1CN(C(=O)[C@H]2C[C@@H](Oc3ncc(C(C)(C)N)c4cc(Nc5ccc6c(n5)[C@@H](C)C(C)(C)OC6=O)ncc34)C2)C1 [Compound 15] when tested on Primary T Cell.
Reply: 7.38

Query: Tell me pEC50 of CC(=O)N1CC(Nc2ncc(C(C)(C)N)c3cc(Nc4ccc5c(n4)[C@@H](C)C(C)(C)OC5=O)ncc23)C1 [Compound 22] when tested on Primary T Cell.
Reply: 6.32

Origin of measurements: patent US20240199648A1
